- Tested on: 5-HT2cR mRNA
- assay_explanation: Editing profile of 5-HT2cR mRNA isoforms by CE-SSCP (nested PCR) in SH-SY5Y cells; enzyme activity indexes worked out from the profile
- Format: cell-based, human
- assay_setup: Homo sapiens; SH-SY5Y, 10 micromolar, 24 hours; read-out: ENZYME ACTIVIY INDEX (% of variation) ADAR1 + 2
Measured activation at 10 µM values are reported for all entries that follow.
// units = %; emit number, no label

> print(dat)
                                   compound  study.target  units.symbol  result
1  Cc1c(C(=O)NN2CCCCC2)nn(-c2ccc(Cl)cc2Cl)c1-c1ccc(Cl)cc1  5-HT2cR mRNA             %     2.4
2   NC(=O)OCC(COC(N)=O)c1ccccc1 [Felbamate]  5-HT2cR mRNA             %   -13.9
3             Nc1nnc(-c2cccc(Cl)c2Cl)c(N)n1  5-HT2cR mRNA             %   -24.6
4     NS(=O)(=O)Cc1noc2ccccc12 [Zonisamide]  5-HT2cR mRNA             %     9.7

Here is the next item to consider.
QUERY: Recorded activation at 10 µM for CC(NC(C)(C)C)C(=O)c1cccc(Cl)c1 (centres unmarked) , please?
RESULT: 42.6
